molecular target: Oxysterols receptor LXR-beta (Homo sapiens, UniProt P55055); assay: Agonist activity at Gal4-tagged LXRbeta (unknown origin) expressed in CHOK1 cells after 24 hrs by luciferase reporter gene assay; type: cell-based, CHO-K1; conditions: read-out: EC50
Sequence (P55055 whole entry, the tested form may be a part): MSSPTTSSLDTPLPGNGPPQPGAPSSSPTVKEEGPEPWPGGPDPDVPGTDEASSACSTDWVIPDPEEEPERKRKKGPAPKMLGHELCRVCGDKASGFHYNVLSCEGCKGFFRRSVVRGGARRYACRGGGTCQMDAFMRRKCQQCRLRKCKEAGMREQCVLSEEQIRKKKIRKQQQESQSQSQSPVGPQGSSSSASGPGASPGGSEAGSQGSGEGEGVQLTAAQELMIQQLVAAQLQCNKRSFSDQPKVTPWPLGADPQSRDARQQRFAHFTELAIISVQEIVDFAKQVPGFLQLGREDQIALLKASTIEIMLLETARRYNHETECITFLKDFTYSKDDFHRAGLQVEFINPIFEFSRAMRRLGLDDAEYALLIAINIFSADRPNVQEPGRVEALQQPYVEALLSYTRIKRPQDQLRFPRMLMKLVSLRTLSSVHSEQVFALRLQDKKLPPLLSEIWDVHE
quantity_name: EC50 (µM)
Write down the numeric answer in µM and omit the unit.

Would you please look over these solved cases?
compound="CCCc1cc2c(C(F)(F)F)cc(=O)oc2c(CCC)c1OCCCCN1C(=O)NC(C)(c2ccc(OC)cc2)C1=O (stereo not drawn)" measurement=0.96
compound="CCCc1cc2c(C(F)(F)F)cc(=O)oc2c(CCC)c1OCCCCN1C(=O)NC(C)C1=O (stereo not drawn)" measurement=1.3
compound="CCCc1c(OCCCCN2C(=O)NC(C)(c3ccccc3)C2=O)ccc2c(C(F)(F)F)cc(=O)oc12 (stereo not drawn)" measurement=2
compound="CCCc1c(OCCCCN2C(=O)NC(C)(c3ccc(OC)c(OC)c3)C2=O)ccc2c(C(F)(F)F)cc(=O)oc12 (stereo not drawn)" measurement=3
compound=CCCc1cc2c(C(F)(F)F)cc(=O)oc2c(CCC)c1OCCCCN1C(=O)CN(C)C1=O measurement=1.3

Ask | Please report EC50 with Oxysterols receptor LXR-beta (Homo sapiens, UniProt P55055) for item CCCc1cc2c(C(F)(F)F)cc(=O)oc2c(CCC)c1OCCCCN1C(=O)NC(C)(c2ccc(C)cc2)C1=O (stereo not drawn) .
Reply | 2.4

Ask | Please report EC50 with Oxysterols receptor LXR-beta (Homo sapiens, UniProt P55055) for item CCCc1c(OCCCN2C(=O)CSC2=O)ccc2c(C(F)(F)F)noc12 .
Reply | 0.69

Ask | Please report EC50 with Oxysterols receptor LXR-beta (Homo sapiens, UniProt P55055) for item CCCc1cc2c(C(F)(F)F)cc(=O)oc2c(CCC)c1OCCCCN1C(=O)N(C)C(C)(C)C1=O .
Reply | 4.7

---

assay: Plasma concentration in Golden Syrian hamster at 300 mg/kg, po after 2 hrs; format: ADME, organism-based, Mesocricetus auratus; set-up: dose 300 mg/kg, route oral
quantity_name: concentration at 2 h (ng/mL)
Write down the numeric answer in ng/mL and omit the unit.

Ask | Output measured concentration at 2 h for this item: CCCc1c(OCCCCN2C(=O)NC(C)(c3ccc(OC)cc3)C2=O)ccc2c(C(F)(F)F)cc(=O)oc12 (stereo unspecified)
Reply | 59

---

assay: Plasma concentration in Golden Syrian hamster at 300 mg/kg, po after 1 hr; format: ADME, organism-based, Mesocricetus auratus; parameters: dose 300 mg/kg, route oral
quantity_name: concentration at 1 h (ng/mL)
Write down the numeric answer in ng/mL and omit the unit.

Ask | Output measured concentration at 1 h for this item: CCCc1c(OCCCCN2C(=O)NC(C)(c3ccc(OC)cc3)C2=O)ccc2c(C(F)(F)F)cc(=O)oc12 (stereo unspecified)
Reply | 53

---

target: Oxysterols receptor LXR-alpha (Homo sapiens); assay: Agonist activity at Gal4-tagged LXRalpha (unknown origin) expressed in CHOK1 cells after 24 hrs by luciferase reporter gene assay; type: cell-based, CHO-K1; settings: read-out: EC50
Sequence (Q13133 whole entry, the tested form may be a part): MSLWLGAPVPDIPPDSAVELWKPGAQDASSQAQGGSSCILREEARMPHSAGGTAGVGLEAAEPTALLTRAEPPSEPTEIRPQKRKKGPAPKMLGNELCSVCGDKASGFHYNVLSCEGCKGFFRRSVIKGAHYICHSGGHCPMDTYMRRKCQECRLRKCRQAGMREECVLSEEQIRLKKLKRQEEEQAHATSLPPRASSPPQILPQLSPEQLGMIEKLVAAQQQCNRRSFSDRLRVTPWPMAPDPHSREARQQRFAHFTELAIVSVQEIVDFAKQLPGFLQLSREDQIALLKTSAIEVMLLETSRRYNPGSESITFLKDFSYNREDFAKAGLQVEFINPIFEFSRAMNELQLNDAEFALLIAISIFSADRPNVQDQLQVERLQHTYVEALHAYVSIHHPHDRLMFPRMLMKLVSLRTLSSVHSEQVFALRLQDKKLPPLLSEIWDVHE
quantity_name: pEC50
Just so you know, pEC50 here is -log10 of the concentration in molar units; reply with that number alone.

Would you please look over these solved cases?
compound=O=C(O)Cc1cccc(OCCCN(Cc2cccc(C(F)(F)F)c2Cl)CC(c2ccccc2)c2ccccc2)c1 quantity_name=pEC50 measurement=5.89
compound="CCCc1cc2c(C(F)(F)F)cc(=O)oc2c(CCC)c1OCCCCN1C(=O)C(C)N(C)C1=O (configuration not stated)" quantity_name=pEC50 measurement=5.77
compound=CCCc1cc2c(C(F)(F)F)cc(=O)oc2c(CCC)c1OCCCCN1C(=O)CN(C)C1=O quantity_name=pEC50 measurement=5.59

Ask | Output measured pEC50 for this item: CCCc1cc2c(C(F)(F)F)cc(=O)oc2c(CCC)c1OCCCCN1C(=O)CSC1=O
Reply | 5.59

Ask | Output measured pEC50 for this item: CCCc1cc2c(C(F)(F)F)cc(=O)oc2c(CCC)c1OCCCCN1C(=O)NC(C)C1=O (configuration not stated)
Reply | 5.82

Ask | Output measured pEC50 for this item: CCCc1c(OCCCN2C(=O)CSC2=O)ccc2c(C(F)(F)F)noc12
Reply | 5.89

Ask | Output measured pEC50 for this item: CCCc1cc2c(C(F)(F)F)cc(=O)oc2c(CCC)c1OCCCCN1C(=O)N(C)C(C)(C)C1=O
Reply | 4.96
